B1: CPEB3 Ribozyme (parent)
chain: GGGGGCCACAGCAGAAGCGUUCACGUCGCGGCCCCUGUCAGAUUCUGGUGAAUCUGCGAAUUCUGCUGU

Variants of: B1
Assay explanation: self-cleavage, relative activity (ratio to wild type); higher = more cleavage; co-transcriptional
Property name: self-cleavage
Give your answer as a number; write no unit.

Residues	Assay result
GGGGUCCACAGCAGAAGCGUUCACGUCGCGGCCCCUGUCAGAUUCUGGUGAAUCUGCGAAUCCUGCUGU [G5U U62C]	0.143
GGGGGCCACAGCAGAAGCGUUCACGUCGCGGCCCCUGUUAGAUUCUUGUGAAUCUGCGAAUUCUGCUGU [C39U G47U]	0.973
GGGGGCCACAGCAGGAGCGUUCACGUCGCGGCCCCUGUCAGAUCCUGGUGAAUCUGCGAAUUCUGCUGU [A15G U44C]	0.99
GGGGGCCACAGCAGAAGCGUUCACGUCGCGGCCCCUGUCGGAUUCUGGUGAAUCGGCGAAUUCUGCUGU [A40G U55G]	0.757
GGGGGCCACAUCAGAAGCGUUCACGUCGCGACCCCUGUCAGAUUCUGGUGAAUCUGCGAAUUCUGCUGU [G11U G31A]	0.746
GGGGGCCACAACAGAAGCGUUCACAUCGCGGCCCCUGUCAGAUUCUGGUGAAUCUGCGAAUUCUGCUGU [G11A G25A]	0.126
UGGGGCCACAGCAGAAGCGUUCACAUCGCGGCCCCUGUCAGAUUCUGGUGAAUCUGCGAAUUCUGCUGU [G1U G25A]	0.0632
GGGGGCCACAGCAGAAGCGUUCACGUCGAGGACCCUGUCAGAUUCUGGUGAAUCUGCGAAUUCUGCUGU [C29A C32A]	0.297
GGGGGCCACAGCAGAAGCGCUCACGUCGCGGCCCCUGUCAGAUUCUGGUGAAUCUGAGAAUUCUGCUGU [U20C C57A]	0.232
GGGGGCCACAGCAAAAGCGUUCACGUCGCGGCCCCUGUCAGAUUCUGGUGGAUCUGCGAAUUCUGCUGU [G14A A51G]	0.81

Kindly consider the entry below.
// self-cleavage lookup, variant = GGGGGCCACAGCAGAAGCGUUCACGUCGCGGCCCCUGUCAGAUUUUGGUGAAUCUGCGAAUGCUGCUGU [C45U U62G] , result: 0.847
